For each record, write down the corresponding growth.
# System: LOX IMVI melanoma
# assay notes: NCI-60 one-dose screen, 48 h (100 = growth as untreated, 0 = no growth, -100 = all killed)
# conditions used: 10 µM
The panel holds about 83,000 compounds, 20% with a hit somewhere; the sample as a whole holds those more often. The source made the active and inactive calls. Rule for the calls: active = growth percent below 10; inactive = the rest.

compound | parameter | assay result
CCCCCCCCCCCCN1C(C)=CS/C1=C\C=C\c1scc(C)[n+]1CCCCCCCCCCCC | growth | 25.9% (inactive)
Cc1ccc(NC2=CC(=O)C(=O)c3ccccc32)cc1 | growth | 0.472% (active)
CC(=O)OC1CC2CCC1(C)C2(C)C (configuration not stated) | growth | 101% (inactive)
c1ccc2sc(SSN3CC4CCC(CC4)C3)nc2c1 | growth | 92.1% (inactive)
CN(C)c1ccc(C(C#N)(c2ccccc2)c2ccc(N(C)C)cc2)cc1 | growth | 51.1% (inactive)

Here are 3 compounds. What values of growth were reported for them?
1. OC(c1cc(C23CC4CC(CC(C4)C2)C3)nc2c(Cl)cc(Cl)cc12)C1CCCCN1 (configuration not stated)
2. Cc1nn(CCO)c(C)c1N=[N+]([O-])c1c(C)nn(CCO)c1C
3. COc1cc(/C=C/c2ccnc3ccccc23)cc(OC)c1OC

Ans.
1: -51.2% (active); 2: 16% (inactive); 3: 26.1% (inactive)

###

# Test system: M14 melanoma
# assay notes: NCI-60 one-dose screen, 48 h
# conditions used: 10 µM unless noted
Compounds without any hit were thinned out: in the full panel of roughly 83,000, 20% have a hit. Active and inactive are the calls of the source. The calls were made as follows: active = growth percent below 10; inactive = the rest.
// allowed return values: T = active, F = inactive

Completed entries (count: 5):
compound | label
CCOc1cc(F)c([N+](=O)[O-])cc1[N+](=O)[O-] | F
O=C1C=CC(=O)N1c1cccc2c1CCCC2 | F
COc1ccc(NC(=O)/C(=C/N2C(=O)/C(=C/c3ccc(OC)c(OC)c3)NC2=S)C(C)=O)cc1 | F
Oc1ccc(Br)cc1Sc1cc(Br)ccc1O | F
CN(Cc1ccccc1)c1ccc(SC#N)cc1 | F

# ---- query compound ----
Qu. Just curious, what result did O=C1c2ccccc2Cc2cccc(Cl)c21 get here?
Ans. F

###

# Tested on: MDA-MB-435 melanoma
# assay notes: NCI-60 one-dose screen, 48 h
# conditions used: 10 µM unless noted
This is part of a sample that, as a whole, favours compounds with a hit. Of some 83,000 tested, about 20% had one in any assay. Activity calls are given as the source filed them. The calls were made as follows: active = growth percent below 10; inactive = the rest.
// allowed return values: active, inactive

Completed entries (count: 3):
compound | label
Cn1c(-c2ccccc2)c(/C=C/C2=[N+](C)c3ccccc3C2(C)C)c2ccccc21 | active
Oc1ccc(Cl)cc1Cc1cc(Cl)ccc1O | inactive
O=[N+]([O-])CC(O)c1ccccc1 (configuration not stated) | inactive

# ---- query compound ----
Qu. Just curious, what result did CC(C)(C)c1ccc(CCO)cc1 get here?
Ans. inactive

###

# Tested on: K-562 leukemia
# assay notes: NCI-60 one-dose screen, 48 h (100 = growth as untreated, 0 = no growth, -100 = all killed)
# conditions used: 10 µM unless noted
This is part of a sample that, as a whole, favours compounds with a hit. Of some 83,000 tested, about 20% had one in any assay. Calls of active or inactive are those of the source. Rule for the calls: active = growth percent below 10; inactive = the rest.
parameter: growth

Here are 2 molecules. What values of growth were reported for them?
1. CC(C)c1ccc(C(=O)OC2CCCC2)cc1
2. OC(Cc1cc(CC(O)(C(F)(F)F)C(F)(F)F)nc(CC(O)(C(F)(F)F)C(F)(F)F)c1)(C(F)(F)F)C(F)(F)F

Ans.
1: 120% (inactive); 2: 9.94% (active)

Here are 2 molecules. What values of growth were reported for them?
1. COc1cc2c(c(OC)c1OC)-c1ccc(NCc3ccccc3)c(=O)cc1[C@@H](NC(C)=O)CC2
2. CCCCC(CCc1ccc([N+](=O)[O-])cc1)(C(C)=O)C(=O)OCC (centres undefined)

Ans.
1: 2.48% (active); 2: 99.7% (inactive)

###

For each record, write down the corresponding growth.
# System: OVCAR-5 ovarian
# assay notes: NCI-60 one-dose screen, 48 h (100 = growth as untreated, 0 = no growth, -100 = all killed)
# conditions used: 10 µM unless noted
Compounds without any hit were thinned out: in the full panel of roughly 83,000, 20% have a hit. *1 amine or outer side, *2 acyl side, *3 side chain or, on linkers, in order; H or OH if unused. Where a SMILES comes first, the peptide text is derived from it. [ ]: non-standard residue; d: D form. The star is where a group is joined. X5 = CCC(=O)CC1CC(C)CC(C(=O)[*:2])N1[*:1]; X4 = CCCCCCCCC(C)C(=O)*; Aib = CC(C)(N)C(=O)O; X6 = CC(CN(C)CCO)N*
Numbers only, in %.

# count of solved cases: 3
molecule | assay result
N#CCc1cccc2ccccc12 | 110
O=C1C=CC(=O)N1c1ccccc1 | 96.4
CCCCCCCCC(C)C(=O)N1CCCC1C(=O)N1C(CC(=O)CC)CC(C)CC1C(=O)NC(C)C(=O)NC(C)(C)C(=O)NC(C)(C)C(=O)NC(C(=O)NC(C)C(=O)NC(C)(C)C(=O)NC(C)(C)C(=O)NC(C)CN(C)CCO)C(C)CC (centres undefined) (X4-P[X5]A[Aib][Aib]IA[Aib][Aib]-X6; configuration not given here) | -82.2

Turning now to a further molecule:
Qu. Look at this molecule and give its reported growth. CCCCCCCCc1cc(Cl)c(O)c(Cl)c1
Ans. 101

###

# Test system: BT-549 breast
# assay notes: NCI-60 one-dose screen, 48 h
# conditions used: 10 µM unless noted
# Experimental: Growth inhibition of the BT-549 human tumor cell line is measured as a screen for anti-cancer activity. Cells are grown in 96 well plates and exposed to the test compound for 48 hours. Compounds are tested at a single concentration, which is 10^-5 M for most compounds. The reported endpoint is percent growth (GI% or GIPRCNT), where numbers from 0 - 100% represent growth inhibition, and numbers from -100% - 0 represent cell death. For example, a value of 40 represents 60% growth inhibition. […]
About 83,000 compounds went through this panel and 20% of them were active in at least one assay; those are over-represented in the sample as a whole. Active and inactive are the calls of the source. The calls were made as follows: active = growth percent below 10; inactive = the rest.
// allowed return values: active, inactive

Completed entries (count: 6):
compound | tgt | label
CN1CCC(CN2c3ccccc3Sc3ccccc32)C1 (stereo not drawn) | BT-549 breast | inactive
CC(=O)c1c(O)c(C)c(O)c2c1OC1=CC(=O)C(C(C)=O)C(=O)C12C (stereo not drawn) | BT-549 breast | inactive
CCCCCCCCCCCCCCCCCC[S+](C)CC (stereo not drawn) | BT-549 breast | inactive
O=C(c1ccccc1)N(CCCl)C(=O)N(CCCl)C(=O)c1ccccc1 | BT-549 breast | inactive
CCN(CC)CC(O)c1cc(-c2ccc(Cl)cc2)nc2cc(Cl)ccc12 (stereo not drawn) | BT-549 breast | inactive
CCN(CC)CC(O)CNc1ccc(NCC2CO2)c2c1C(=O)c1ccccc1C2=O (stereo not drawn) | BT-549 breast | active

Qu. Just curious, what result did Oc1c(C(Nc2ccccc2)c2ccccc2)ccc2cccnc12 (stereo not drawn) get here?
Ans. inactive

Qu. Can you handle O=C1C(=O)c2cccnc2-c2ncccc21 next?
Ans. active

###

For each record, write down the corresponding growth.
# Test system: COLO 205 colon
# assay notes: NCI-60 one-dose screen, 48 h (100 = growth as untreated, 0 = no growth, -100 = all killed)
# conditions used: 10 µM unless noted
About 83,000 compounds went through this panel and 20% of them were active in at least one assay; those are over-represented in the sample as a whole.
Give bare numbers, in %.

# count of solved cases: 4
molecule | tgt | unit label | growth
CC(C)c1ccc(Nc2n[nH]c(=S)s2)cc1 | COLO 205 colon | % | 116
Cc1cc(=O)oc2cc(O)cc(O)c12 | COLO 205 colon | % | 110
O=C/C=C/c1ccc([N+](=O)[O-])cc1 | COLO 205 colon | % | 115
C(=N\Nc1ccc2ccccc2n1)/c1ccccn1 | COLO 205 colon | % | 20

Here are 8 molecules. What values of growth were reported for them?
1. Cc1ccccc1N=C(N)Nc1ccccc1C (tested in a mixture with another compound)
2. Oc1ccc2ccccc2c1N=Nc1ccccn1
3. CN(C)c1ccc(/C=C/c2nccc3ccccc23)cc1
4. C/C(=N/NC(N)=S)c1ccc(C)cc1
5. S=c1[nH]c2cc(Cl)ccc2s1
6. CC(C)(C)c1ccc(O)c(-c2ccccc2)c1
7. c1ccc(-c2cccc(-c3ccccn3)n2)nc1
8. CC(O)C(O)C(O)C(O)C(O)C(=O)NNc1ccccc1 (stereo unspecified)

Ans.
1. 85.5
2. 15.9
3. 91.4
4. 99.1
5. 92.9
6. 105
7. 4.26
8. 94.2

Here are 2 molecules. What values of growth were reported for them?
1. CC1(C)OCC(COC(c2ccccc2)(c2ccccc2)c2ccccc2)O1 (stereo unspecified)
2. COc1ccc(NC(=O)/C(=C/N2C(=O)/C(=C/c3ccc(OC)c(OC)c3)NC2=S)C(C)=O)cc1

Ans.
1. 109
2. 107

Here are 7 molecules. What values of growth were reported for them?
1. Oc1ccc(Nc2ccc3ccccc3c2)cc1
2. CCN(CC)CC(O)CNc1ccc(NCC2CO2)c2c1C(=O)c1ccccc1C2=O (stereo unspecified)
3. CN(Cc1ccccc1)c1ccc(SC#N)cc1
4. N=C1C=C(N)C(=O)c2ccccc21
5. COC(=O)[C@]1(C)CCC[C@]2(C)c3ccc(C(C)C)cc3C(=O)[C@@H](Br)[C@@H]12
6. O=C1C=C(Cl)C(=O)c2ccccc21
7. Oc1ccc2ccccc2c1N=Nc1nccs1

Ans.
1. 96.1
2. -40.8
3. 66.4
4. -93.7
5. 106
6. 93.2
7. 21.4
